Where these numbers come from: PubChem BioAssay AID1852

Catalogue of inhibition values
# Experimental details: TNF-a-driven NF-kB reporter inhibitors, primary screen, selectivity assay for NOD1/NOD2 signaling inhibitor project, cell-based, HEK293T NF-kB-Luc, luminescence (AID 1852)
# Experimental parameters: TNF-a induced, 14 h, at 4 µM, stronger effect = higher value
In all, about 2,500 compounds went through this assay and about 1,100 (44%) were called active. The set was probably picked from earlier hits. This is one part of the list.
Number only, in %; omit the unit.

// below: answered compounds
Exercise: Return inhibition for the following compound: COc1ccc(C(=O)Nc2ccccc2C(=O)N/N=C/c2ccccn2)cc1OC
Solution: 102

Exercise: Return inhibition for the following compound: Cc1c(C(=O)N/N=C/c2ccoc2)cccc1[N+](=O)[O-]
Solution: -12.6

Attention now shifts to the item below.
Exercise: Return inhibition for the following compound: Fc1ccc(NC(=S)N2CCCN(c3ccc(C(F)(F)F)cn3)CC2)c(F)c1
Solution: 55.6

###

# Experimental details: TNF-a-driven NF-kB reporter inhibitors, primary screen, selectivity assay for NOD1/NOD2 signaling inhibitor project, cell-based, HEK293T NF-kB-Luc, luminescence (AID 1852)
# Experimental parameters: TNF-a induced, 14 h, at 4 µM, stronger effect = higher value
The whole screen tested about 2,500 compounds, of which about 1,100 (44%) were called active. So high a share suggests a set chosen from earlier hits. Some of the results follow.
Measurement label: inhibition (%)
Number only, in %; omit the unit.

// below: answered molecules
Exercise: Return inhibition for the following molecule: COCCn1c(C)cc(C(=O)CSc2nnc3ccccn23)c1C
Solution: 17.3

Exercise: Return inhibition for the following molecule: Cc1cc(C(=O)COc2cccnc2[N+](=O)[O-])c(C)n1-c1ccccc1F
Solution: 38.6

Exercise: Return inhibition for the following molecule: Cc1cc(C)n(Cc2ccc(NC(=O)c3ccc(COc4ccccc4Br)cc3)cc2)n1
Solution: 46.2

Exercise: Return inhibition for the following molecule: C/C(=N\NC(=O)c1ccc(CN2CCc3ccccc3C2)cc1)c1ccccc1O
Solution: 77.8

Exercise: Return inhibition for the following molecule: Cc1ccc2c(c1)N(C)/C(=C/c1cccc[n+]1C)S2
Solution: 24.9

Exercise: Return inhibition for the following molecule: CC(=O)NC(c1ccc(Cl)cc1Cl)c1ccc2cccnc2c1O (stereo not drawn)
Solution: 15.6

Exercise: Return inhibition for the following molecule: COc1cccc(C(NC(C)=O)c2ccc3cccnc3c2O)c1 (stereo not drawn)
Solution: 57.3

Exercise: Return inhibition for the following molecule: O=C(Nc1ccc(Cl)cn1)c1ccc(Br)c(S(=O)(=O)N2CCCCC2)c1
Solution: 39.5

***
Exercise: Return inhibition for the following molecule: COc1ccc(-c2n(CC(=O)OC3CC(C)CCC3C(C)C)c3ccccc3[n+]2C)cc1 (stereo not drawn)
Solution: 74.8

###

# Experimental details: TNF-a-driven NF-kB reporter inhibitors, primary screen, selectivity assay for NOD1/NOD2 signaling inhibitor project, cell-based, HEK293T NF-kB-Luc, luminescence (AID 1852)
# Experimental parameters: TNF-a induced, 14 h, at 4 µM, stronger effect = higher value
Among all 2,500 compounds or so, about 1,100 (44%) were called active. The set was probably picked from earlier hits. This is one part of the list.
Catalogue of inhibition values
Number only, in %; omit the unit.

Exercise: Return inhibition for the following compound: Fc1ccc2[nH]c3c(N4CCc5ccccc5C4)ncnc3c2c1
Solution: 45.8

Exercise: Return inhibition for the following compound: O=C(Nc1ccc(F)cc1)Nc1ccc(N2CCCC2)c(S(=O)(=O)Nc2ccccc2Cl)c1
Solution: 35.1

Exercise: Return inhibition for the following compound: Cc1ccc(OCCn2c(NC(=O)c3ccco3)nc3ccccc32)cc1
Solution: 19.6

Exercise: Return inhibition for the following compound: Cc1csc2ncnc(NC3CCN(Cc4ccccc4)CC3)c12
Solution: 32.1

Exercise: Return inhibition for the following compound: Cc1ccc(/C=C2/SC(=S)N(c3ccc(S(=O)(=O)Nc4nccs4)cc3)C2=O)cc1
Solution: 21

***
Exercise: Return inhibition for the following compound: Cc1ccc(NC(=O)CSc2ncnc3ccccc23)cc1S(=O)(=O)N1CCOCC1
Solution: 39.8

Exercise: Return inhibition for the following compound: Cn1c(/C=C/c2ccc(Br)cc2)c([N+](=O)[O-])c(=O)n(C)c1=O
Solution: -12.1

Exercise: Return inhibition for the following compound: O=C1C(Cl)=C(Nc2ccc(O)cc2)C(=O)c2ccccc21
Solution: 30.4
